Biological target: T1, human iRhom2 (inactive rhomboid protein 2, isoform 1), endogenously expressed on human cells (human, UniProt Q6PJF5 1-856)
T1 construct: also called RHBDF2; NP_078875.4
T1 sequence: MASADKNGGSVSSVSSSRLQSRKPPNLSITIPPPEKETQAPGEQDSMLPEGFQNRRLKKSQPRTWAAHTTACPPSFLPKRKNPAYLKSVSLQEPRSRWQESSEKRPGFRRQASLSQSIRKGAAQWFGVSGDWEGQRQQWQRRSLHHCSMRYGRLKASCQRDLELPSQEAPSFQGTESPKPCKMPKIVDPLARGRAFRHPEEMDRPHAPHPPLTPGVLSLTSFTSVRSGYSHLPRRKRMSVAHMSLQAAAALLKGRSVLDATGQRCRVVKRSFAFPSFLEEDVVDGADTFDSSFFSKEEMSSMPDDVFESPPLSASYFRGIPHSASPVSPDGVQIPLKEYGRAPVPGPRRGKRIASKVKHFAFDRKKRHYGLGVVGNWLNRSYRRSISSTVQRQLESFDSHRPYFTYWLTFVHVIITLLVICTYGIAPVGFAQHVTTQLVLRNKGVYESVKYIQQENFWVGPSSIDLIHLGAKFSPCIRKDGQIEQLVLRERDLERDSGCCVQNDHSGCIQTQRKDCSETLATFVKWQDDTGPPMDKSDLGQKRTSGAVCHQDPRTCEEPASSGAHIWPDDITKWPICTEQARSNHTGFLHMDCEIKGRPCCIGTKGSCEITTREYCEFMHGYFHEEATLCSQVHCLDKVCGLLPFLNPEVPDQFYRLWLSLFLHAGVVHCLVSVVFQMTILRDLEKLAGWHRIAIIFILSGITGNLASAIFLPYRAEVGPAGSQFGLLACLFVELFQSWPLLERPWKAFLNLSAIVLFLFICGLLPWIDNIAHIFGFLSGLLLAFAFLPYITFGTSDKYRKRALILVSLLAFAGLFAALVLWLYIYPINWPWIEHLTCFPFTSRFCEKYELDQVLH
Assay: indirect FACS scatchard analysis on THP-1 cells (endogenous iRhom2)
quantity-kind: Kd (nM)
The figure you give is taken to be in nM; do not add the unit.

Inquiry: # Kd lookup, item antibody 16 (antibody, V domains shown, Mouse IgG, kappa light chain; also called clone #16; m16) VH: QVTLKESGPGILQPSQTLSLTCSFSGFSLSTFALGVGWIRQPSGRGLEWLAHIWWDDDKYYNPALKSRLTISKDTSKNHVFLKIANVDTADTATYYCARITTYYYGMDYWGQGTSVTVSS VL: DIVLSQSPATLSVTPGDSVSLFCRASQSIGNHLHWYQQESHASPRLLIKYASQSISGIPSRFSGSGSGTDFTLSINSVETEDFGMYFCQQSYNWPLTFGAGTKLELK
Reply text: 0.34

Inquiry: # Kd lookup, item antibody 22 (antibody, V domains shown, Mouse IgG, kappa light chain; also called clone #22; m22) VH: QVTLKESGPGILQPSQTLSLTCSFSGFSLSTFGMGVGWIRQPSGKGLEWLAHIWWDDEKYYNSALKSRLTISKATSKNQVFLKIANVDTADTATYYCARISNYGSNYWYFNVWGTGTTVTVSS VL: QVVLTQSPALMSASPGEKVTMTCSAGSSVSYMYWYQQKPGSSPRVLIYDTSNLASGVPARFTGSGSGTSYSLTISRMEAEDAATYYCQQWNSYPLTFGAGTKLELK
Reply text: 2.04

Inquiry: # Kd lookup, item antibody 50 (antibody, V domains shown, Mouse IgG, kappa light chain; also called clone #50; purified antibody 50) VH: QVQLQQSGAELVRPGASVKVSCKASGYAFSNYLIEWVKQRPGQGLEWIGVINPGSGFTKYNEKFKGKATLTADKSSSTAYMQLSSLTSEDSAVYFCARGLYRAMDYWGQGTSVTVSS VL: DIQMTQSPASQSASLGESVTITCLASQTIGTWLAWYQQKPGKSPQLLIYAAASLADGVPSRFSGGGSGTKFSFKISSLQAEDFVNYYCQQIYSTPYTFGGGTKLEIK
Reply text: 1.43
